System: MS2 coat protein
Test: apparent KD of MS2 coat protein; designed switch direction (-1 OFF switch, 1 ON switch): -1; higher = weaker reporter binding
Settings: input ligand: microRNA oligo, concentration not stated
value_kind: apparent KD of MS2 coat protein (nM)

1) GAACUGAAGCUUUGCUUUAGUCGUACAUGAGGAUCACCCAUGUAGGAUAUGGUAGGCUUUGCUUACUAGAAGGACAGAGUGAUC [Mat - Exclusion NG 3 - Mod of JL - D68] (Eterna round: R96, puzzle: Exclusion NG 3); 73.8
2) GACCUGAGGCAAAGCUUUAGGCUUACAUGAGGAUCACCCAUGUAGGAUAUGGUAGGCAAAGCUUACCAGAAGGACAUGGAAAUU [Mat - Exclusion NG 3 - Mod of JL - D25] (Eterna round: R96, puzzle: Exclusion NG 3); 98.7
3) AAAGACAUGAGGAUCACCCAUGUACUGGUGGAGCUCGUGAGGCAGGAUAUCGCGUGCGAAGCUCGCGAGAAGGGCCAGGAAUUU [Cexela] (Eterna round: R96, puzzle: Exclusion NG 3); 98.2

###

Below: a set of entries, each annotated with reported apparent KD of MS2 coat protein.
Tested on: MS2 coat protein
Test: apparent KD of MS2 coat protein; higher = weaker reporter binding
Details: Eterna round: R107; input ligand: arginine 13.2 mM
value_kind: apparent KD of MS2 coat protein

1. AGCGCAGGUCCUGAUACCAGAGACAUGAGGAUCACCCAUGUCCGGUGGUCCUGCCACAGGCUCCCUUGGCAGCAGGGCUUGUGCU [Exclusion Theophylline B GF9]; 31.4 nM
2. GGUGGCUGGACUGAUACCAGCCACCACCGAUAGACCACAUGAGGAUCACCCAUGUUGGGUGGCCCUUGGCAGCAGUCUAGCUGCC [#1 Same State - Theophylline B Attempt #11 (HarryS)]; 231 nM
3. GCUACAUGAGGAUCACCCAUGUAUGCGAGUCGAGGACCGGUACGGCCGCCACUCGCUUAACAUGAGGAUCACCCAUGUUACUCGC [SSTA DOUBLE!!! :-D #19]; 56 nM
4. CGAAUACGAAUUGAUACCAGCAUGUUAACAUGAGGAUCACCCAUGUUAAGGAUAACAUAAUGCCCUUGGCAGCAACGUAAAUUCG [Ab]; 16.7 nM
5. AAUUUCGUAGGUAAAAGUUUAGAAACUGAAGGAGCGUGGUAUUACACAGGUAGGUCGCAGAUUUUACAUGAGGAUCACCCAUGUU [JR_SSArginiA_Sub008]; 20.6 nM
6. GUGAGGUUUGAUGAUACCAGAUGUGGUGGGAACAUGAGGAUCACCCAUGUUGUGAAACAGGUCCCUUGGCAGCAUGAGAGAGCUU [TheoB-ms2@32]; 30.5 nM
7. AAAAUAAAGGCGGCCGCCACUAGAGUUAGGCUUAUGUACUGGGUAACAUGAGGAUCACCCAUGUAUAGGACCGGGCCAUAAUAAA [Same State - Tryptophan B (Freestyle 2)]; 28 nM

###

Tested on: MS2 coat protein
Test: apparent KD of MS2 coat protein; designed switch direction (-1 OFF switch, 1 ON switch): 1; higher = weaker reporter binding
Details: input ligand: none
value_kind: apparent KD of MS2 coat protein (nM)

1) AGAGGAGGAGCAGGAUAUGCGAAGAAGAACGAGGUAGAAGGGCUCAUGCGAUGACAUGAGGAUCACCCAUGUACCGCGCGAGGA [AK SSNG1-V2-8.2] (Eterna round: R96, puzzle: Same State NG 1); 142
2) GUGGUCAGACAUGAGGAUCACCCAUGUGGAAUAAAUAACGGACAGGAUAUUCAAUAUAGGAUAUAGAAGAAGGGUUGAUUGGUG (Eterna round: R96, puzzle: Same State NG 3); 90.9
3) UAUGAUGCCGUAGGAUAUCUAGGAUAUGGACGAGGAUCACCCGAGCAGCAUCAGCGCACCAGAGGAGAGAAGGACGCUUUGGAA [pwkr ssNG2 2F5 2FMN.22] (Eterna round: R96, puzzle: Same State NG 2); 486
4) AGGCUCAGACGAGGAUAUAUGUGAUCACAUGAGGAUCACCCAUGUCUCGAGCUUCGGCUCGAGACAUAGAAGGUGUCUGAGCCA [SSNG2/3-C1] (Eterna round: R96, puzzle: Same State NG 2); 32.3
5) UCGAGCGUACUUGCAGACAUGAGGAUCACCCAUGUAAAUGGGAAGGAUAUGGUACCGUUUCGGUACCAGAAGGUCCUAAGUGAU [salish99_SSNG3_r04_302] (Eterna round: R96, puzzle: Same State NG 3); 1200
6) AAACGGCCCAACGGAGGGCCACAUGAGGAUCACCCAUGUACAUAGGAUAUCACGCCAACGAGGCGUGAGAAGGGUGAUUAAAAC [Bisomaor] (Eterna round: R96, puzzle: Same State NG 3); 73.5
7) GUGGUCAGACAUGAGGAUCACCCAUGUGGAAUAAAUAAGGAUCAGGAUAUGGAAUAUAGGAUAUACCAGAAGGGAUGGUUGGUG (Eterna round: R96, puzzle: Same State NG 3); 52.6

###

Test system: MS2 coat protein
Assay: apparent KD of MS2 coat protein; designed switch direction (-1 OFF switch, 1 ON switch): 1; higher = weaker reporter binding
Conditions: Eterna round: R95; input ligand: none
Below: a set of entries, each annotated with reported apparent KD of MS2 coat protein.
value_kind: apparent KD of MS2 coat protein (µM)

1. AAAGCACAUGAGGAUCACCCAUGUGGAAAUAACACAGGAUAUCCGGCCGAAAAUACGGUGGGAGAAGGGUGACCUA [Inxetemama] (puzzle: Same State 1); 0.0867
2. AUAAGUUCGAUGCUCGUCUCUCCGUACAAACAUGAGGAUCACCCAUGUGAUCGAGAAGUAGCCCGAUCAGUAUGGCC [Soainge] (puzzle: Sensor for hsa-mir-208a); 0.0353
3. ACAAGCUUUUUAGGAGAGAAAGGUGGGAUACAUGAGGAUCACCCAUGUAUGGUAGUUAAUAGUGGACCUCGUCUUAU [JR_SHM208A_Sub082] (puzzle: Sensor for hsa-mir-208a); 0.0641
4. GUAGAAUAACUAGAGGAUAUCCGAGUGGUAACAUGAGGAUCACCCAUGUGAUGAAAGGAACAUGAGGAGAAGGCUAGAAGUAAUG [Mat - Same State 2 - Mod of JL - D81] (puzzle: Same State 2); 0.0481
5. GGAUAACAUGAGGAUCACCCAUGUCAACAAAGUCGAGGAUAUGGGCAAUUAUAAUUAGAACCAGAAGGCGAAUAGG [Mat - Same State 1 - Mod of UCT - D44] (puzzle: Same State 1); 0.191
6. AGUCCAGCCAGAGCUGGACAAAAGCAUGUACAUGAGGAUCACCCAUGUUCAUGUACAAGCUUUUUGCAAGUCAAAAG [Mat - hsa-mir-208a - Mod of JL - 74] (puzzle: Sensor for hsa-mir-208a); 0.78
7. AAACCCAGUCUGUAGGAUAUGCACCUGCCGACAUGAGGAUCACCCAUGUACCCUAACAACAGCGUGCAGAAGGGCAGCAAUAAAA [Verilara] (puzzle: Same State 2); 0.0263

###

Test system: MS2 coat protein
Test: apparent KD of MS2 coat protein; higher = weaker reporter binding
Conditions: Eterna round: R107; input ligand: theophylline 20 uM
Rule: apparent KD of MS2 coat protein of 0.04 µM or more gives rule met; anything lower gives rule not met.

1) AUAACAUGAGGAUCACCCAUGUAAGGUGAUACCAGACGAAGUAAAGUCCCUUGGCAGCACAAGCAUAGUUGCGAAUAUUGAUAGA [JR_SSTheophyA_Sub005]; rule met
2) CCAUAAGUACCGGUCCUCAGAUCCUCAUGACGAGGACCGGUACGGCCGCCACUCGAAACAUGAGGAUCACCCAUGUAAUAAUACC [Brourdmod18]; rule met
3) UGUACCAUGUCGGCCGCCACUUGAAAUAAACAAGAGGAUCACCCUUGUGACGUCAAAGACGUCUCAAGGACCGGGACAUGGUACU [TryBS Zipper #StaticStem #Zipper]; rule met
4) AAAUAGGUAGGAGAUACCAGAUACGUUAACAUGAGGAUCACCCAUGUGUAUGCACUUAGUGUCCCUUGGCAGCUCGAGGAUCUGG [#18 Same State - Theophylline B]; rule not met
5) AGUACAUGAGGAUCACCCAUGUAUCGGUACCGAGGACCGGUACGGCCGCCACUCGCAGGACAUGAGGAUCACCCAUGUGCCGCCG [SSTA DOUBLE!!! :-D #9]; rule not met

###

Test system: MS2 coat protein
Test: apparent KD of MS2 coat protein; designed switch direction (-1 OFF switch, 1 ON switch): -1; higher = weaker reporter binding
Details: input ligand: FMN 200 uM
Below: a set of entries, each annotated with reported apparent KD of MS2 coat protein.
value_kind: apparent KD of MS2 coat protein

1. UGCCUACAUGAGGAUCACCCAUGUGAGGAUAUCCUGCGAGGAUCAAAAGAUCCUCGUGGGAGAAGGCGCCUGGA [Omei Ex1 B5] (Eterna round: R97, puzzle: Exclusion 1); 19.9 nM
2. CCGUUCCGUGUAGGAUAUUGGCCUUCCUCGGGCCGAGAAGGACAUGAGGAUCACCCAUGUAUGCUAUUAUCGCGCGUGGCGCAC [Design 97] (Eterna round: R96, puzzle: Exclusion NG 1); 158 nM
3. AGAUGCUCAAGUCGACAUGAGGAUCACCCAUGUACAGUUAAUGAGGAUAUCUGAGAUAAAUAAUAGGAGAAGGCGUGAACAUGA [Ex NG3 #9] (Eterna round: R96, puzzle: Exclusion NG 3); 25.9 nM
4. GGCACACAUGAGGAUCACCCAUGUGAGGAUAUGUGGCGAUCGUCGAUAGACGAUAGCCACAGAAGGCACAGGCC [Mat - Exclusion 1 - Eli Mod - D21] (Eterna round: R97, puzzle: Exclusion 1); 23.2 nM
5. GUAAUGCUAGGAUAUCGACAAAUUUACAUGAGGAUCACCCAUGUGAACCCUGUGUGGUAACGAGAAGGAGUCAGCU [Eternabot (L2) Solution 54] (Eterna round: R97, puzzle: Exclusion 5); 39.1 nM
6. AACCAGCGAGGAUAUGCUUGCGCGUGUUCUGGUUGUAAUCGACUUGAGGAUCACCCAAGUAGAAGGCGCUGCCG [EX2 #51] (Eterna round: R97, puzzle: Exclusion 2); 100 nM

Values compiled from the supplement of paper PMC9170038.
